test system: DLD-1 cancer cells; assay: MTS assay, DLD-1 cells; format: cell-based; design: concentration or dose not given beside the values
Below: a set of entries, each annotated with reported DLD-1, MTS, 72 hours (% Inhibition).
Give the number; % is assumed, so skip it.

Reference set (5 entries):
>  <Molecule>
CC(C)OC(=O)Nc1nnc2c(Nc3ccc(Br)cc3)nccn12

>  <Target Entity>
DLD-1 cancer cells

>  <Result Unit>
%

>  <DLD-1, MTS, 72 hours (% Inhibition)>
97

$$$$
>  <Molecule>
CC(C)OC(=O)Nc1nnc2c(NCc3cccc(C(F)(F)F)c3)nccn12

>  <Target Entity>
DLD-1 cancer cells

>  <Result Unit>
%

>  <DLD-1, MTS, 72 hours (% Inhibition)>
98

$$$$
>  <Molecule>
Cc1ccnc(N(Cc2ccccc2)c2nccn3c(NC(=O)OC(C)C)nnc23)c1

>  <Target Entity>
DLD-1 cancer cells

>  <Result Unit>
%

>  <DLD-1, MTS, 72 hours (% Inhibition)>
99

$$$$
>  <Molecule>
COc1ccc(CCNc2nccn3c(N)nnc23)cc1

>  <Target Entity>
DLD-1 cancer cells

>  <Result Unit>
%

>  <DLD-1, MTS, 72 hours (% Inhibition)>
97

$$$$
>  <Molecule>
COc1ccccc1Nc1nccn2c(NC(=O)OC(C)C)nnc12

>  <Target Entity>
DLD-1 cancer cells

>  <Result Unit>
%

>  <DLD-1, MTS, 72 hours (% Inhibition)>
97

$$$$

Given the entry `CC(C)OC(=O)Nc1nnc2c(N3CCCCC3)nccn12` , report its measured DLD-1, MTS, 72 hours (% Inhibition). 48

Same question for CC(C)OC(=O)Nc1nnc2c(NCCC3CCCN3C)nccn12 (stereo not drawn) please. 58

Same question for `Nc1nnc2c(NCCc3ccc(Cl)cc3)nccn12` please. 98

Same question for `COc1ccccc1CCNc1nccn2c(NC(=O)OC(C)C)nnc12` please. 10

----------
target: FGFR2 (N549H) (Homo sapiens, UniProt P21802, N549H); construct: purchased Millipore 14-742; assay: FGFR2 kinase activity assay (fluorescent ELISA); type: biochemical; settings: 30 μM compound
Sequence (P21802 22-821 N549H): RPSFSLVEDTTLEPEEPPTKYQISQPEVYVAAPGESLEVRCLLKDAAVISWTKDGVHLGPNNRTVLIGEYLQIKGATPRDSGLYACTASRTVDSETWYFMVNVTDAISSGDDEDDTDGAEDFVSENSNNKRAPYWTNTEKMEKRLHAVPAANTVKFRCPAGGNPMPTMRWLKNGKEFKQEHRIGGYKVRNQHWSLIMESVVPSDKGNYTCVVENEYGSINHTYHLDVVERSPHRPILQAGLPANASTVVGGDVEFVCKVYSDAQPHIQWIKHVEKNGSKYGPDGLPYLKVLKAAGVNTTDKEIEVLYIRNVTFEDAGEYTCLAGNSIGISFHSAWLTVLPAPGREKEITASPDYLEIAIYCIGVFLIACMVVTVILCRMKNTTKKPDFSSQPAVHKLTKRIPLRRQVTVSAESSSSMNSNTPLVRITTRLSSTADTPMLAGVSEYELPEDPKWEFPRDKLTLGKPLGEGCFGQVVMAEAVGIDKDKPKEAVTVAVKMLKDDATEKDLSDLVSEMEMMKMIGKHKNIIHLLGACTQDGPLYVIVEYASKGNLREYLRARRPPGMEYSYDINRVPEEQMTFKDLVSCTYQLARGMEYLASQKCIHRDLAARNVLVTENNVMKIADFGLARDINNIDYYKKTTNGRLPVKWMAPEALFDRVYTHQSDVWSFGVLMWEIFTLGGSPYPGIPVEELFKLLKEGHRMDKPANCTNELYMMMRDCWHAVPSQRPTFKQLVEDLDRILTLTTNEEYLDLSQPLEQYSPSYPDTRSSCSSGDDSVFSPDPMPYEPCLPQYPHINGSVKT
Use 60% as the dividing line for inhibition at 30 µM, with the line itself on the TRUE side and lower values as FALSE.

>  <Mol>
Cc1cccc(CNc2nccn3c(N)nnc23)c1C

>  <Category>
TRUE

$$$$
>  <Mol>
Cc1ccc(N(C)c2nccn3c(NC(=O)OC(C)C)nnc23)cc1

>  <Category>
FALSE

$$$$
>  <Mol>
CC(C)OC(=O)Nc1nnc2c(NCc3ccccc3Br)nccn12

>  <Category>
FALSE

$$$$

Please check the record `COc1ccc(C)cc1Nc1nccn2c(N)nnc12` and state if its inhibition at 30 µM is at or above 60%. TRUE

Same question for `CC(C)OC(=O)Nc1nnc2c(Nc3cccc(Cl)c3)nccn12` please. TRUE

----------
system: DLD-1 cancer cells; assay: MTS assay, DLD-1 cells; assay type: cell-based; parameters: concentration or dose not given beside the values
Below: a set of entries, each annotated with reported DLD-1, MTS, 72 hours (% Inhibition).
Give the number; % is assumed, so skip it.

Reference set (4 entries):
>  <Mol>
Nc1nnc2c(NCCc3ccccc3)nccn12

>  <DLD-1, MTS, 72 hours (% Inhibition) [%]>
97

$$$$
>  <Mol>
CCc1ccc(CCNc2nccn3c(NC(=O)OC(C)C)nnc23)cc1

>  <DLD-1, MTS, 72 hours (% Inhibition) [%]>
93

$$$$
>  <Mol>
CC(C)OC(=O)Nc1nnc2c(N(C)c3ccccn3)nccn12

>  <DLD-1, MTS, 72 hours (% Inhibition) [%]>
96

$$$$
>  <Mol>
CC(C)OC(=O)Nc1nnc2c(N3CCC(n4c(=O)[nH]c5cc(Cl)ccc54)CC3)nccn12

>  <DLD-1, MTS, 72 hours (% Inhibition) [%]>
97

$$$$

Given the entry `CC(C)OC(=O)Nc1nnc2c(NCc3cccc(F)c3)nccn12` , report its measured DLD-1, MTS, 72 hours (% Inhibition). 97

Same question for `Cc1ccccc1Nc1nccn2c(N)nnc12` please. 97

Same question for `COc1ccccc1CNc1nccn2c(NC(=O)OC(C)C)nnc12` please. 98
